// provenance: patent US12473262B2

measuredOn: aryl hydrocarbon receptor (AhR) (Mus musculus (Mouse), UniProt P30561)
Sequence (P30561 10-805): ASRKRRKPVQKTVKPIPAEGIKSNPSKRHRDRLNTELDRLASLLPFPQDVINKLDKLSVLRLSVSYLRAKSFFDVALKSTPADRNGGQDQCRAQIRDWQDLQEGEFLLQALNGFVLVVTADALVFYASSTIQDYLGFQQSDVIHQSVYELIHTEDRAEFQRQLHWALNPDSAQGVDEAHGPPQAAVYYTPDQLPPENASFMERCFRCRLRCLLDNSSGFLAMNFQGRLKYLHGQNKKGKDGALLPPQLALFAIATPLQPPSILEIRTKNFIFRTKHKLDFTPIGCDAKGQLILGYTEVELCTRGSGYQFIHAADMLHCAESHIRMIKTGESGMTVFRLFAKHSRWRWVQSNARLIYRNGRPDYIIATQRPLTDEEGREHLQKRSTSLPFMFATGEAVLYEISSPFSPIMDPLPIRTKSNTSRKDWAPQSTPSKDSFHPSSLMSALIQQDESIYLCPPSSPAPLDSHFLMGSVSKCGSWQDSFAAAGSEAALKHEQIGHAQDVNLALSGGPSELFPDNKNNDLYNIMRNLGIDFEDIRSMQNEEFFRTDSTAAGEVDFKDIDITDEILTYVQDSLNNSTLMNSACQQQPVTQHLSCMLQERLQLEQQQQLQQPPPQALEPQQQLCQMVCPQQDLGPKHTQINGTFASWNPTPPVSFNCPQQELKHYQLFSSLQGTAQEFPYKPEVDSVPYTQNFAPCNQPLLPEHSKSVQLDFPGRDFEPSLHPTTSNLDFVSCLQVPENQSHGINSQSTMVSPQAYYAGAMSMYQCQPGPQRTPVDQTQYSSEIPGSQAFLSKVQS
Sequence (P53762 whole entry partner): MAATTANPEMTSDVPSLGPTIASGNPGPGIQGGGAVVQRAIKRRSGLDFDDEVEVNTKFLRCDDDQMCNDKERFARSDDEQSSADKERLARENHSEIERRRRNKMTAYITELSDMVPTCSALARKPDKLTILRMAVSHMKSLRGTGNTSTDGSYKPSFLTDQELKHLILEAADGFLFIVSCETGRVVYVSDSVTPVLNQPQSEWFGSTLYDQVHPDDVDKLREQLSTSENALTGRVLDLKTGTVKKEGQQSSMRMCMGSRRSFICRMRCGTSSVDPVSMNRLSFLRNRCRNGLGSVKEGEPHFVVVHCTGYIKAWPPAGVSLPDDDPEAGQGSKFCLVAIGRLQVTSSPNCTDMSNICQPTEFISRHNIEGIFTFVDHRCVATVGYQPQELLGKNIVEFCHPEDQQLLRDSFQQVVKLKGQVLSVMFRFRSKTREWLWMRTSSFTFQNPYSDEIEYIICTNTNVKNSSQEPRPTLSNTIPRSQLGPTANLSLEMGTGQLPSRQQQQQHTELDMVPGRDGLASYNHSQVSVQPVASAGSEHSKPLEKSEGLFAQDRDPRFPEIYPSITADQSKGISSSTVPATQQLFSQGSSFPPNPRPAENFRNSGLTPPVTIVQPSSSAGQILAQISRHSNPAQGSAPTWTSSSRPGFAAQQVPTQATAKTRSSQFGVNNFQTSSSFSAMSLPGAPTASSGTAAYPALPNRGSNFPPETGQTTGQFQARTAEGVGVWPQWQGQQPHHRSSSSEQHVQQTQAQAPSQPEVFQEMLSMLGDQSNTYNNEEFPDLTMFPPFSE
experimentNotes: AhR ligand screening: AhRE-luciferase reporter in transfected Hepa1 cells
Format: cell-based
experimentalConditions: fold change of luciferase expression at 100 nM test compound relative to vehicle (0.1% DMSO)
Field: Fold @ 100 nM. Provide a value for each of the compounds that follow.
Report the figure in fold without appending any unit label.

The compound listed as Cc1ccc(S(=O)(=O)n2c(-c3cccc4ccccc34)nc3cc(Cl)ccc32)cc1 has a reported Fold @ 100 nM of 15

The compound listed as Clc1ccc2c(c1)nc(-c1cccc3ccccc13)n2Cc1ccncc1 has a reported Fold @ 100 nM of 3

The compound listed as O=C(c1ccc(F)c(F)c1)n1c(-c2ccnc3ccccc23)nc2cc(Cl)ccc21 has a reported Fold @ 100 nM of 2

The compound listed as c1ccc2c(c1)Cn1c3ccccc3c3ccnc-2c31 has a reported Fold @ 100 nM of 10

The compound listed as O=C(c1ccc(F)c(F)c1)n1c(-c2cccc3ccccc23)nc2cc(Cl)ccc21 [Compound 529] has a reported Fold @ 100 nM of 41

The compound listed as COc1ccc(C(=O)n2c(-c3cccc4ccccc34)nc3cc(Cl)ccc32)cc1OC has a reported Fold @ 100 nM of 18

The compound listed as O=C(c1ccc2nc(-c3cccc4ccccc34)n(S(=O)(=O)c3cccc(F)c3)c2c1)N1CCOCC1 has a reported Fold @ 100 nM of 1

The compound listed as O=C(c1ccc(F)c(F)c1)n1c(-c2cccc3c2CCCC3)nc2cc(Cl)ccc21 has a reported Fold @ 100 nM of 1

The compound listed as O=C(c1ccc(F)c(F)c1)n1c(-c2cccc3ccccc23)cc2cc(Cl)ccc21 has a reported Fold @ 100 nM of 1

The compound listed as O=C(c1ccc(F)c(F)c1)n1c(-c2ccc(Cl)c3ccccc23)nc2cc(Cl)ccc21 has a reported Fold @ 100 nM of 12

The compound listed as O=C(c1ccc(F)c(F)c1)n1c(-c2ccc(F)c3ccccc23)nc2cc(Cl)ccc21 has a reported Fold @ 100 nM of 2

The compound listed as O=C(C1CCCCC1)n1c(-c2cc3ccccc3o2)nc2cc(Cl)ccc21 has a reported Fold @ 100 nM of 12

The compound listed as O=C(C1CCCCC1)n1c(-c2cccc3ccccc23)nc2cc(Cl)ccc21 has a reported Fold @ 100 nM of 34

The compound listed as COC(=O)c1ccc2c(c1)nc(-c1cccc3ccccc13)n2S(=O)(=O)c1ccc(C#N)cc1 has a reported Fold @ 100 nM of 2

The compound listed as O=C(c1cccc2ccccc12)n1c(-c2ccccc2)nc2cc(Cl)ccc21 has a reported Fold @ 100 nM of 1

The compound listed as O=C(c1ccccc1)n1c(-c2cccc3ccccc23)nc2ccc(Cl)cc21 has a reported Fold @ 100 nM of 25

The compound listed as O=C(c1ccc2c(c1)OCCO2)n1c(-c2cccc3ccccc23)nc2cc(Cl)ccc21 [Compound 850] has a reported Fold @ 100 nM of 22

The compound listed as COC(=O)c1ccc2nc(-c3cccc4ccccc34)n(Cc3ccc(F)c(F)c3)c2c1 has a reported Fold @ 100 nM of 1

The compound listed as Clc1ccc2c(c1)nc1n2Cc2ccccc2-1 has a reported Fold @ 100 nM of 1

The compound listed as CN1CCN(C(=O)c2ccc3nc(-c4cccc5ccccc45)n(S(=O)(=O)c4cccc(F)c4)c3c2)CC1 has a reported Fold @ 100 nM of 1

The compound listed as O=C(c1ccc(F)c(F)c1)n1c(-c2cc3ccccc3o2)nc2ccc(Cl)cc21 has a reported Fold @ 100 nM of 10

The compound listed as O=C(c1ccc2c(c1)OCCO2)n1c(-c2cccc3ccccc23)nc2cc(Cl)ccc21 [Compound 851] has a reported Fold @ 100 nM of 21

The compound listed as O=C(c1ccccc1)n1c(-c2ccc3ccccc3c2)nc2ccc(F)cc21 has a reported Fold @ 100 nM of 1

The compound listed as O=C(c1ccncc1)n1c(-c2ccccc2)nc2ccc(Cl)cc21 has a reported Fold @ 100 nM of 1

The compound listed as COc1ccc(C(=O)n2c(-c3cccc4ccccc34)nc3cc(Cl)ccc32)cc1 has a reported Fold @ 100 nM of 38

The compound listed as O=C(c1ccccc1)n1c(-c2ccc(F)c(Cl)c2)nc2cc(Cl)ccc21 has a reported Fold @ 100 nM of 1

The compound listed as N#Cc1ccc2c(c1)nc(-c1cccc3ccccc13)n2C(=O)c1ccccc1 has a reported Fold @ 100 nM of 2

The compound listed as CC(C)(C)c1cccc(-c2nc3cc(Cl)ccc3n2C(=O)c2ccc(F)c(F)c2)c1 has a reported Fold @ 100 nM of 1

The compound listed as O=S(=O)(c1ccc2ccccc2c1)n1c(-c2cccc3ccccc23)nc2cc(Cl)ccc21 has a reported Fold @ 100 nM of 16

The compound listed as O=C(c1ccccc1)n1c(-c2ccc(F)c3ccccc23)nc2cc(Cl)ccc21 has a reported Fold @ 100 nM of 2

The compound listed as O=C(c1ccc2ccccc2c1)c1c[nH]c2ccc(Cl)cc12 has a reported Fold @ 100 nM of 1

The compound listed as O=C(c1ccc2c(c1)nc(-c1cccc3ccccc13)n2S(=O)(=O)c1ccc2ccccc2c1)N1CCCCC1 has a reported Fold @ 100 nM of 1

The compound listed as O=C(c1ccc(SC(F)(F)F)cc1)n1c(-c2cccc3ccccc23)nc2cc(Cl)ccc21 has a reported Fold @ 100 nM of 24
